Origin of measurements: patent US20110143948A1

# Test system: ncRNAs (SEQ ID NO 28-89)
# test_details: ncRNA arrays of melanocytes, keratinocytes, normal skin, melanoma cell lines and patient samples
# Set-up: species or system human
# run_parameters: melanoma patient 26 sample compared to normal skin
Please enter True where ncRNA array expression, patient 26 is greater than or equal to 1, and False where it is lower.

>  <substance>
SEQ ID NO 62 (AATCGTTAATATCATTGATATTAAGTAATTTCCCCACTCTGAGTGAATACTTTGATGATG; listed as DNA, chemistry not given here; listed as Homo sapiens)

>  <measurement_target>
ncRNAs (SEQ ID NO 28-89)

>  <class>
True

$$$$
>  <substance>
SEQ ID NO 71 (AAAATTCCAAGAGGGCCTTTTCGAATAGACGCATGAACGGTGTTTGTGTCTGGATCGTCC; listed as DNA, chemistry not given here; listed as Homo sapiens)

>  <measurement_target>
ncRNAs (SEQ ID NO 28-89)

>  <class>
True

$$$$
>  <substance>
SEQ ID NO 80 (CACACAGCCCAGTCTGCCTGTGATGGTAATATAAATCAAACCAGGGACCCAAGAGCCCAG; listed as DNA, chemistry not given here; listed as Homo sapiens)

>  <measurement_target>
ncRNAs (SEQ ID NO 28-89)

>  <class>
False

$$$$
>  <substance>
SEQ ID NO 30 (ATTCCAAGGCCTATTAAAATTTCTGAGCATTGCCCATTTCTTTTGCTTTATCTGTAGGAC; DNA, backbone and methylation of C not given here; listed as Homo sapiens)

>  <measurement_target>
ncRNAs (SEQ ID NO 28-89)

>  <class>
True

$$$$
>  <substance>
SEQ ID NO 75 (CAAGTGGGAAGAAAAAGAGCCCTACGTGGTGACATTCTGGAAGGATATCATGGATGATTG; listed as DNA, chemistry not given here; listed as Homo sapiens)

>  <measurement_target>
ncRNAs (SEQ ID NO 28-89)

>  <class>
False

$$$$

====

Here the recorded ncRNA array expression, patient 10 is given for each entry.
# Test system: ncRNAs (SEQ ID NO 28-89)
# test_details: ncRNA arrays of melanocytes, keratinocytes, normal skin, melanoma cell lines and patient samples
# Set-up: species or system human
# run_parameters: melanoma patient 10 sample compared to normal skin
assay_metric: ncRNA array expression, patient 10

>  <substance>
SEQ ID NO 67 (TTCCCTATTCCATCCTTTGATGGGTGGCCTGTTACACGTTTGGAAATAAAAACAAGTGGG; listed as DNA, chemistry not given here; listed as Homo sapiens)

>  <assay_metric>
ncRNA array expression, patient 10

>  <recorded_value>
3.887

$$$$
>  <substance>
SEQ ID NO 62 (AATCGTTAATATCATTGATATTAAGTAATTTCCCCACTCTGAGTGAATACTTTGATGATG; listed as DNA, chemistry not given here; listed as Homo sapiens)

>  <assay_metric>
ncRNA array expression, patient 10

>  <recorded_value>
1.264

$$$$
>  <substance>
SEQ ID NO 73 (AAAGTTTCCCCATAATGCTCTTGCAAGTGAATATGAGCTGTGGTTTTTGCAGTGGAGTTA; listed as DNA, chemistry not given here; listed as Homo sapiens)

>  <assay_metric>
ncRNA array expression, patient 10

>  <recorded_value>
1.767

$$$$
